- System Tested: DNA gyrase (Staphylococcus aureus, UniProt P0A0K8+P20831)
- Experiment Description: Inhibition of Staphylococcus aureus DNA gyrase
pIC50: −log10 of the molar value.
# cutoff 5 applies to pIC50; >= gives Criterion met, < gives Criterion not met

Below, 4 compounds whose answers are already recorded.
| Compound | Label Class |
| --- | --- |
| COc1ccc2nccc([C@@H](O)CC[C@@H]3CCN(C4CC(c5ccccc5)C4)C[C@@H]3C(=O)O)c2c1 (some centres not stated) | Criterion met |
| COc1ccc2nccc([C@@H](O)CC[C@@H]3CCN(C4CC(c5cc(F)ccc5C)C4)C[C@@H]3C(=O)O)c2c1 (some centres not stated) | Criterion met |
| COc1ccc2nccc([C@@H](O)CC[C@@H]3CCN(C4CC(c5ccc(-c6ccccc6)cc5)C4)C[C@@H]3C(=O)O)c2c1 (some centres not stated) | Criterion not met |
| COc1ccc2nccc([C@@H](O)CC[C@@H]3CCN(C4CC(c5cc(C(F)(F)F)ccc5F)C4)C[C@@H]3C(=O)O)c2c1 (some centres not stated) | Criterion not met |

Exercise: Is pIC50 at least 5? Consider COc1ccc2nccc([C@@H](O)CC[C@@H]3CCN(C4CC(c5ccn(C)n5)C4)C[C@@H]3C(=O)O)c2c1 (some centres not stated)
Solution: Criterion not met

---

- Experiment Description: Clearance in rat at 2 mg/kg, iv and 5 mg/kg, po
- Assay type: ADME, organism-based
- Conditions Used: in vivo
# clearance annotations
Numeric answer only, unit mL/min/kg assumed.

| Compound | Value Unit | clearance |
| --- | --- | --- |
| COc1ccc2ncc(F)c([C@@H](O)CC[C@@H]3CCN(CCSc4cccs4)C[C@@H]3C(=O)O)c2c1 | mL/min/kg | 32.7 |
| COc1ccc2nccc([C@@H](O)CC[C@@H]3CCN(C4CC(c5cc(F)ccc5F)C4)C[C@@H]3C(=O)O)c2c1 (some centres undefined) | mL/min/kg | 43.9 |
| COc1ccc2nccc([C@@H](O)CC[C@@H]3CCN(C4CC(c5c(F)cccc5F)C4)C[C@@H]3C(=O)O)c2c1 (some centres undefined) | mL/min/kg | 39.7 |

For the next question, use this compound.
Exercise: Given COc1ccc2nccc([C@@H](O)CC[C@@H]3CCN(C4CC(c5ccccc5)C4)C[C@@H]3C(=O)O)c2c1 (some centres undefined) , respond with its clearance.
Solution: 43.1

---

This listing pairs compounds with measured IC50.
- System Tested: DNA gyrase (Staphylococcus aureus, UniProt P0A0K8+P20831)
- Experiment Description: Inhibition of Staphylococcus aureus DNA gyrase
Please give a number only; it is taken to be in µM.

For orientation, consider the following solved cases.
| Compound | Readout | Value Unit | Recorded Measurement |
| --- | --- | --- | --- |
| COc1ccc2nccc([C@@H](O)CC[C@@H]3CCN(C4CC(c5cccc(F)c5F)C4)C[C@@H]3C(=O)O)c2c1 (stereo partly specified) | IC50 | µM | 1.56 |
| COc1ccc2nccc([C@@H](O)CC[C@@H]3CCN(C4CC(c5cc(F)cc(F)c5OC)C4)C[C@@H]3C(=O)O)c2c1 (stereo partly specified) | IC50 | µM | 6.25 |
| COc1ccc2nccc([C@@H](O)CC[C@@H]3CCN(C4CC(c5ccc(C(F)(F)F)cc5F)C4)C[C@@H]3C(=O)O)c2c1 (stereo partly specified) | IC50 | µM | 6.25 |
| COc1ccc2nccc([C@@H](O)CC[C@@H]3CCN(C4CC(c5c(F)ccc(F)c5OC)C4)C[C@@H]3C(=O)O)c2c1 (stereo partly specified) | IC50 | µM | 3.13 |
| COc1ccc2nccc([C@@H](O)CC[C@@H]3CCN(C4CC(c5cccc(F)c5C)C4)C[C@@H]3C(=O)O)c2c1 (stereo partly specified) | IC50 | µM | 25 |

In the following, a different compound is considered.
Exercise: Tell me measured IC50 for COc1ccc2nccc([C@@H](O)CC[C@@H]3CCN(C4CC(c5ccnc(C)n5)C4)C[C@@H]3C(=O)O)c2c1 (stereo partly specified) please.
Solution: 50

---

- Experiment Description: Inhibition of Staphylococcus aureus DNA topoisomerase 4
Readout: IC50 (µM)
Give the value in µM but do not write µM after it.

| Compound | IC50 / µM |
| --- | --- |
| COc1ccc2nccc([C@@H](O)CC[C@@H]3CCN(C4CC(c5cccc(SC)c5)C4)C[C@@H]3C(=O)O)c2c1 (some centres undefined) | 150 |

Exercise: Please list IC50 recorded for the compound COc1ccc2nccc([C@@H](O)CC[C@@H]3CCN(C4CC(c5ccccc5C(F)(F)F)C4)C[C@@H]3C(=O)O)c2c1 (some centres undefined)
Solution: 60

Exercise: # return recorded IC50 for input COc1ccc2nccc([C@@H](O)CC[C@@H]3CCN(CCSc4cccs4)C[C@@H]3C(=O)O)c2c1
Solution: 84.6

---

Overview of reported MIC across a group of compounds:
- Tested on: Staphylococcus aureus
- Experiment Description: Antibacterial activity against fluoroquinolone-resistant Staphylococcus aureus 1095
- Type: functional

Check out these entries, answers already filled in.
| Compound | System Tested | Readout | Recorded Measurement |
| --- | --- | --- | --- |
| COc1ccc2nccc([C@@H](O)CC[C@@H]3CCN(C4CC(c5c(F)cc(F)cc5F)C4)C[C@@H]3C(=O)O)c2c1 (stereo not given in full) | Staphylococcus aureus | MIC | 0.5 µg/mL |
| COc1ccc2nccc([C@@H](O)CC[C@@H]3CCN(C4CC(c5cc(C(F)(F)F)ccc5F)C4)C[C@@H]3C(=O)O)c2c1 (stereo not given in full) | Staphylococcus aureus | MIC | 4 µg/mL |
| COc1ccc2nccc([C@@H](O)CC[C@@H]3CCN(C4CC(c5ccc(-c6ccccc6)cc5)C4)C[C@@H]3C(=O)O)c2c1 (stereo not given in full) | Staphylococcus aureus | MIC | > 64 µg/mL |

Exercise: Report measured MIC; entry is COc1ccc2nccc([C@@H](O)CC[C@@H]3CCN(C4CC(c5cc(SC)ccc5F)C4)C[C@@H]3C(=O)O)c2c1 (stereo not given in full)
Solution: 2 µg/mL

Exercise: Read the entry COc1ccc(C2CC(N3CC[C@@H](CC[C@H](O)c4ccnc5ccc(OC)cc45)[C@@H](C(=O)O)C3)C2)c(F)c1 (stereo not given in full) and write its reported MIC.
Solution: 64 µg/mL

Exercise: Identify the reported MIC for the following entry. COc1ccc2nccc([C@@H](O)CC[C@@H]3CCN(C4CC(c5ccccc5)C4)C[C@@H]3C(=O)O)c2c1 (stereo not given in full)
Solution: 0.2 µg/mL

Exercise: Specify reported MIC for the compound shown: COc1ccc2nccc([C@@H](O)CC[C@@H]3CCN(C4CC(c5cc(Cl)ccc5F)C4)C[C@@H]3C(=O)O)c2c1 (stereo not given in full)
Solution: ≤ 0.0625 µg/mL

---

- Experiment Description: Inhibition of Staphylococcus aureus DNA topoisomerase 4
Readout: pIC50
Bear in mind: pIC50 is minus log10 of a mol/L concentration; give just that figure.

Examples with their reported pIC50 follow.
| Molecule | pIC50 |
| --- | --- |
| COc1ccc2nccc([C@@H](O)CC[C@@H]3CCN(C4CC(c5c(F)cccc5Cl)C4)C[C@@H]3C(=O)O)c2c1 (some centres undefined) | 4.22 |
| COc1ccc2nccc([C@@H](O)CC[C@@H]3CCN(C4CC(c5cc(F)ccc5F)C4)C[C@@H]3C(=O)O)c2c1 (some centres undefined) | 5.02 |

Here is the next item to consider.
Exercise: Retrieve pIC50 measured for COc1ccc2nccc([C@@H](O)CC[C@@H]3CCN(C4CC(c5ccc(-c6ccccc6)cc5)C4)C[C@@H]3C(=O)O)c2c1 (some centres undefined) and print it.
Solution: 3.92

---

- System Tested: DNA gyrase (Staphylococcus aureus, UniProt P0A0K8+P20831)
- Experiment Description: Inhibition of Staphylococcus aureus DNA gyrase
Readout: IC50 (µM)
# number only, unit µM dropped from output

Solved cases below.
| Molecule | Recorded Measurement |
| --- | --- |
| COc1ccc2nccc([C@@H](O)CC[C@@H]3CCN(C4CC(c5ccc(Br)cc5F)C4)C[C@@H]3C(=O)O)c2c1 (stereo partly drawn) | 6.25 |
| COc1ccc(F)c(C2CC(N3CC[C@@H](CC[C@H](O)c4ccnc5ccc(OC)cc45)[C@@H](C(=O)O)C3)C2)c1 (stereo partly drawn) | 50 |
| COc1ccc2nccc([C@@H](O)CC[C@@H]3CCN(C4CC(c5cc(F)ccc5OC)C4)C[C@@H]3C(=O)O)c2c1 (stereo partly drawn) | 12.5 |
| COc1ccc2nccc([C@@H](O)CC[C@@H]3CCN(C4CC(c5c(F)ccc(Cl)c5F)C4)C[C@@H]3C(=O)O)c2c1 (stereo partly drawn) | 3.13 |
| COc1ccc2nccc([C@@H](O)CC[C@@H]3CCN(C4CC(c5cc(Br)ccc5F)C4)C[C@@H]3C(=O)O)c2c1 (stereo partly drawn) | 3.13 |
| COc1ccc2nccc([C@@H](O)CC[C@@H]3CCN(C4CC(c5c(F)cc(F)cc5F)C4)C[C@@H]3C(=O)O)c2c1 (stereo partly drawn) | 6.25 |

Exercise: Give the reported IC50 for this molecule. COc1ccc2nccc([C@@H](O)CC[C@@H]3CCN(C4CC(c5c(F)ccc(F)c5F)C4)C[C@@H]3C(=O)O)c2c1 (stereo partly drawn)
Solution: 1.56

Exercise: Tell me IC50 reported for COc1ccc2nccc([C@@H](O)CC[C@@H]3CCN(C4CC(c5ccccc5F)C4)C[C@@H]3C(=O)O)c2c1 (stereo partly drawn)
Solution: 12.5

Exercise: State, in one line, measured IC50 of COc1ccc2nccc([C@@H](O)CC[C@@H]3CCN(C4CC(c5cccc(Cl)c5F)C4)C[C@@H]3C(=O)O)c2c1 (stereo partly drawn)
Solution: 2.4

Exercise: Return the recorded IC50 value; entry: COc1ccc2nccc([C@@H](O)CC[C@@H]3CCN(C4CC(c5cccc(OC)c5F)C4)C[C@@H]3C(=O)O)c2c1 (stereo partly drawn)
Solution: 19

Exercise: Tell me measured IC50 for COc1ccc2nccc([C@@H](O)CC[C@@H]3CCN(C4CC(c5ccc(Cl)cc5F)C4)C[C@@H]3C(=O)O)c2c1 (stereo partly drawn) please.
Solution: 6.25

Exercise: Output measured IC50 for this item: COc1ccc2nccc([C@@H](O)CC[C@@H]3CCN(CCSc4cccs4)C[C@@H]3C(=O)O)c2c1
Solution: 2.42

Source listed as ChEMBL document CHEMBL2380208.
